Each entry below carries its recorded pIC50.
# measuredTarget: SIK2 (Homo sapiens, UniProt Q9H0K1)
# Construct: purchased ThermoFisher Scientific PV4792
# Sequence (Q9H0K1 whole entry): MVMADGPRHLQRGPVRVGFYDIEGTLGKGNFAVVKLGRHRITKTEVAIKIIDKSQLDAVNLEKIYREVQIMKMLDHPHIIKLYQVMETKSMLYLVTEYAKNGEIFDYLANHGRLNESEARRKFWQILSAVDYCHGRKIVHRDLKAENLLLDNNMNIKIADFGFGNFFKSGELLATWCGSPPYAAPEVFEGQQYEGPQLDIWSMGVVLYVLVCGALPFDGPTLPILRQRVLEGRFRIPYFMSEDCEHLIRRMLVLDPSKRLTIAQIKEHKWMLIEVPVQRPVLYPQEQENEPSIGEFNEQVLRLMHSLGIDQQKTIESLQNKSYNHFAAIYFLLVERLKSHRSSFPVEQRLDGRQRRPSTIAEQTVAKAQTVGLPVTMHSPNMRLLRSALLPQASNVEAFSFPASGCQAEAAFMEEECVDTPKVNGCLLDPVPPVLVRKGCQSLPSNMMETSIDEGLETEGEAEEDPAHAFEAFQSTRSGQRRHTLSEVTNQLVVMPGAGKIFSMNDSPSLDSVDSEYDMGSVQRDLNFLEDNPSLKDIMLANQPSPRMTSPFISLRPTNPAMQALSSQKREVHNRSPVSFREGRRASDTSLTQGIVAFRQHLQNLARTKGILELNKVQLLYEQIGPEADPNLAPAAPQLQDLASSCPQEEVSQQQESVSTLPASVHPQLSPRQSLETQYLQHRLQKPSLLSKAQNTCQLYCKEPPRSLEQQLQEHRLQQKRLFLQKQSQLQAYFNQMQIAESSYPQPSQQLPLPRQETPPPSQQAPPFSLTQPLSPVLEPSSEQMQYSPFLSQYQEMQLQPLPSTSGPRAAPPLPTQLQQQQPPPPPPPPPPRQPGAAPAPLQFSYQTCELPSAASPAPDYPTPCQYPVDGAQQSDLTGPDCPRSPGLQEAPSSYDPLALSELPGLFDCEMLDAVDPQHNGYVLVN
# procedureDetails: 33P radioactive kinase assay, SIK2; further: AMARA 5 µM, 10 µM ATP
# Assay type: biochemical
pIC50: −log10 of the molar value.

Recorded results for 3 compounds are shown here.
| compound | pIC50 |
| --- | --- |
| COc1cc(-c2cnc3cc(C(C)(C)C#N)ccn23)cc2c1C(=O)N(CC(F)(F)F)CC2 [Cpd 25] | < 6.30 |
| COc1cc(-n2cnc3cc(C(C)(C)C#N)ccc32)cc(OC)c1C(=O)NC1CC1 [Cpd 11] | < 6.30 |
| COc1cc(-n2cnc3cc(C4CCN(C(=O)OC(C)(C)C)CC4)ccc32)cc(OC)c1C(=O)NCC(F)(F)F [Cpd 2] | 6.30 to 7.00 |

Moving on to another compound below.
Req: Give pIC50 for the following compound: COc1cc(-n2cnc3cc(C4CCCN(C)C4)ccc32)cc(OC)c1C(=O)NCC(F)(F)F (stereo not shown) [Cpd 6]
Resp: < 6.30

====

# System: LPS-induced TNFα in monocytes
# procedureDetails: Monocytes assay: LPS-triggered TNFα (ELISA)
# Type: cell-based, human
# conditionDetails: Homo sapiens, Monocyte, LPS-triggered TNFα inhibition
observedProperty: EC50

Guide cases for EC50, answers given:
| compound | EC50 |
| --- | --- |
| COc1cc(-c2cnc3cc(C4(O)CCOC4)ccn23)cc(OC(F)F)c1C(=O)NC1CC1 (stereo not shown) | 100 to 1000 nM |
| COc1cc(-c2cnc3cc(C4(O)CCOCC4)ccn23)cc(OC(F)F)c1C(=O)NC1CC1 | 1000 to 5000 nM |
| COc1cc(-c2cnc3cc(C4(O)COC4)ccn23)cc(OC(F)F)c1C(=O)NC1CC1 | 100 to 1000 nM |

# ---- query compound ----
Req: Entry COc1cc(-c2cnc3cc(C(C)(C)C4CCO4)ccn23)cc(OC(F)F)c1C(=O)NC1CC1 (stereo not shown) needs its EC50 filled in; supply it.
Resp: 100 to 1000 nM

====

The following compounds are shown together with reported IC50 values.
# measuredTarget: SIK3 (Homo sapiens, UniProt Q9Y2K2)
# Construct: purchased SignalChem S12-11G-100
# Sequence (Q9Y2K2 59-365 limits assumed): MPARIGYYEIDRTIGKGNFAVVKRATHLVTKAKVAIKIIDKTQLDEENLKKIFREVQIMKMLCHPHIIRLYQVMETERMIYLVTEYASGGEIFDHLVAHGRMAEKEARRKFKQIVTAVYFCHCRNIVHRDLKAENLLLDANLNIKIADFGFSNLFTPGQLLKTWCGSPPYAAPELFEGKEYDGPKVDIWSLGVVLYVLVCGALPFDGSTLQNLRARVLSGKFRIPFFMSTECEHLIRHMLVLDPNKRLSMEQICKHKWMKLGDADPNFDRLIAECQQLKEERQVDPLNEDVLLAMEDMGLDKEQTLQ
# procedureDetails: 33P radioactive kinase assay, SIK3
# Format: biochemical
# conditionDetails: 33P radioactive assay; AMARA 7 μM; 15 μM ATP; 80 min; average IC50

Examples from the recorded data:
| compound | IC50 |
| --- | --- |
| COc1cc(-n2cnc3cc(C4CCCN(C)C4)ccc32)cc(OC)c1C(=O)NCC(F)(F)F (centres unmarked) [Cpd 6] | 100 to 500 nM |
| CCC(C)(C#N)c1ccn2c(-c3cc(OC)c(C(=O)NC4CC4)c(OC(F)F)c3)cnc2c1 (centres unmarked) [Cpd 27] | 10 to 100 nM |
| COc1cc(-c2cnc3cc(C4CCCN(C)C4)ccn23)cc(OC)c1C(=O)NCC(F)(F)F (centres unmarked) [Cpd 24] | 10 to 100 nM |
| COc1cc(-n2cnc3cc(C4CCCN(C(=O)OC(C)(C)C)C4)ccc32)cc(OC)c1C(=O)NCC(F)(F)F (centres unmarked) [Cpd 7] | > 500 nM |
| COc1cc(-n2cnc3cc(C4CCOCC4)ccc32)cc(OC)c1C(=O)NCC(F)(F)F [Cpd 5] | 100 to 500 nM |
| COc1cc(-n2cnc3cc(C4CCNCC4)ccc32)cc(OC)c1C(=O)NCC(F)(F)F [Cpd 3] | 100 to 500 nM |
| COc1cc(-c2cnc3cc(C(C)(C)C#N)ccn23)cc(OC)c1C(=O)N1CC(F)(F)C1 [Cpd 18] | 10 to 100 nM |

Consider now this further compound.
Req: Write down IC50 measured for item CCNC(=O)c1c(OC)cc(-c2cnc3cc(C(C)(C)C#N)ccn23)cc1OC [Cpd 30]
Resp: 100 to 500 nM
